assay: The drug is tested on Z-013 corresponding to rabbit gut metagenome with ENA study accession number: PRJEB37062 and ENA sample accession number: ERS12561813 for biotransformation under anaerobic condition. The drug concentrations were measured over 9 timepoints collected between 0 and 24 hours of incubation by liquid-chromatography-coupled mass spectrometry (LC–MS); conditions: 2 µM; also: call rule not given here
reportedEndpoint: Bacterial Biotransformation

Guide cases for Bacterial Biotransformation, answers given:
compound	reportedEndpoint	result
CN1CCN(C(=O)O[C@H]2c3nccnc3C(=O)N2c2ccc(Cl)cn2)CC1	Bacterial Biotransformation	Compound NOT metabolized
CCCc1nc2c(C)cc(-c3nc4ccccc4n3C)cc2n1Cc1ccc(-c2ccccc2C(=O)O)cc1	Bacterial Biotransformation	Compound metabolized
CC(Oc1c(Cl)cccc1Cl)C1=NCCN1 (stereo not drawn)	Bacterial Biotransformation	Compound NOT metabolized
COC(=O)[C@H]1[C@H]2C[C@@H]3c4[nH]c5cc(OC)ccc5c4CCN3C[C@H]2C[C@@H](OC(=O)c2cc(OC)c(OC)c(OC)c2)[C@@H]1OC	Bacterial Biotransformation	Compound NOT metabolized
CC(CN(C)C)CN1c2ccccc2CCc2ccccc21.O=C(O)/C=C\C(=O)O (stereo not drawn) [TRIMIPRAMINE MALEATE]	Bacterial Biotransformation	Compound NOT metabolized
COc1ccccc1OCC(O)CN1CCN(CC(=O)Nc2c(C)cccc2C)CC1 (stereo not drawn)	Bacterial Biotransformation	Compound NOT metabolized
CC(=O)OCC(=O)[C@@]12N=C(C)O[C@@H]1C[C@H]1[C@@H]3CCC4=CC(=O)C=C[C@]4(C)[C@H]3[C@@H](O)C[C@@]12C	Bacterial Biotransformation	Compound metabolized

# input Could you please provide reported Bacterial Biotransformation for Nc1ccc(/N=N/c2ccccc2)c(N)n1 ? Thanks!
# output Compound metabolized
